# System Tested: Mitogen-activated protein kinase kinase kinase kinase 4 (Homo sapiens) (UniProt O95819);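 note: reported figure is an averaged inhibition value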
# Sequence (O95819 2-1239 limits assumed): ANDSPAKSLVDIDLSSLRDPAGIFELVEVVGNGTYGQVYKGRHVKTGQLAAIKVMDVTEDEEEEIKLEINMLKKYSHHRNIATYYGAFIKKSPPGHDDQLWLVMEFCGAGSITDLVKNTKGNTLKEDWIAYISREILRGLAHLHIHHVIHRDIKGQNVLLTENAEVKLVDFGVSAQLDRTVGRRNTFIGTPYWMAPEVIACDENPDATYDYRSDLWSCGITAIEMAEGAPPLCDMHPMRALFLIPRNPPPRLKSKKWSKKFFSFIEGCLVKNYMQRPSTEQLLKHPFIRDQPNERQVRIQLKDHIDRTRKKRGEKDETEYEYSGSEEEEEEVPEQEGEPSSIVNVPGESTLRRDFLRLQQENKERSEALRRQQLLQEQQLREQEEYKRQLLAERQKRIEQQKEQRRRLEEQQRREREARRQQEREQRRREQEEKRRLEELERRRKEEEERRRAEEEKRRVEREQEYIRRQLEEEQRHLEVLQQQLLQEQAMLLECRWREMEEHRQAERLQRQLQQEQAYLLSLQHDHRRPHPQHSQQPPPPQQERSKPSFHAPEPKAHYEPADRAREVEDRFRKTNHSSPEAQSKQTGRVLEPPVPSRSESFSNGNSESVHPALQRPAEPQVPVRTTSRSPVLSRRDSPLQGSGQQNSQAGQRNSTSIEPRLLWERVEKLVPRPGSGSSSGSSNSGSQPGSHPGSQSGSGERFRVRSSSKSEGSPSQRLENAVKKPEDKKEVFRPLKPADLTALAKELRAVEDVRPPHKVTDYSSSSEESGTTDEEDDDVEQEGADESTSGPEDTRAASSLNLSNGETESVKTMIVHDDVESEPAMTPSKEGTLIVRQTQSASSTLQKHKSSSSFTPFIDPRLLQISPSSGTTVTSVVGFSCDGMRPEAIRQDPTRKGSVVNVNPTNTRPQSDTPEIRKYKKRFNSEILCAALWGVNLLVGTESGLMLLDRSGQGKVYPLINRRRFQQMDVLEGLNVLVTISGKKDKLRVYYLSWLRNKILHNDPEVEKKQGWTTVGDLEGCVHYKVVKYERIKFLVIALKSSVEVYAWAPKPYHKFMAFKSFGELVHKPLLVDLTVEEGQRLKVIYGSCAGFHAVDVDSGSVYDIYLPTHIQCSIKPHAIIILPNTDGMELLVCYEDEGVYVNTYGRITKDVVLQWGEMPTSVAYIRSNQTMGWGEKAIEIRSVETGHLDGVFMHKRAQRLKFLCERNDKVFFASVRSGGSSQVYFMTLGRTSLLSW
# Setup Conditions: at 1 µM

Structure As Smiles: CS(=O)(=O)Nc1ccc(-c2cc(-c3ccccc3)cc(C(N)=O)c2N)cc1
Display Unit: %
inhibition: 16.6

Structure As Smiles: COc1ccc(Nc2ncc(-c3ccccc3)o2)cc1OC
Display Unit: %
inhibition: 48.3

Structure As Smiles: c1cnn2ncc(-c3ccnc(NCCCN4CCOCC4)n3)c2c1
Display Unit: %
inhibition: 8.87

Structure As Smiles: CCS(=O)(=O)c1ccc(OC)c(Nc2ncc(-c3cccc(F)c3)o2)c1
Display Unit: %
inhibition: 19.2

Structure As Smiles: O=C(O[C@H]1CN[C@H](C#Cc2cc3ncnc(Nc4ccc5c(cnn5Cc5ccccc5)c4)c3s2)C1)N1CCOCC1
Display Unit: %
inhibition: 2.37

Reference source: ChEMBL document CHEMBL1961873
